src = patent US9879050B2

biological target: Sa-ClpP (Staphylococcus aureus, UniProt Q2G036); construct: made in house; host or cells: E. coli BL21 (DE3); assay: ADEP displacement fluorescence polarization assay; format: binding, S. aureus; conditions: 1 μM Sa-ClpP, 50 nM FP probe ADEP 2591; read-out: ADEP Displacement IC50
Sequence (Q2G036 whole entry): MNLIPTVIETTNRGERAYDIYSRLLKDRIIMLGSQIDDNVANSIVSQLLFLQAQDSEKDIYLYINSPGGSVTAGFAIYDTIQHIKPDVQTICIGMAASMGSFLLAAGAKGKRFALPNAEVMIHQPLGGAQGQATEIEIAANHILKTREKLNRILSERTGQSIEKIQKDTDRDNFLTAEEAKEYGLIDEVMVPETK
*1 amine or outer side, *2 acyl side, *3 side chain or, on linkers, in order; H or OH if unused. Where a SMILES comes first, the peptide text is derived from it. Bridges are numbered along the chain shown (N, C = ends). [ ]: non-standard residue; d: D form. The star is where a group is joined. Phe(3,5-F2) = N[C@@H](Cc1cc(F)cc(F)c1)C(=O)O; Pro(4S-Me) = C[C@@H]1CN[C@H](C(=O)O)C1; NH(4-Et-phenyl) = CCc1ccc(N*)cc1; aThr = C[C@H](O)[C@H](N)C(=O)O; Pip = O=C(O)[C@@H]1CCCCN1; CO = O=C([*:1])[*:2]
Measured pIC50 values are reported for all entries that follow.
Note on pIC50: it is the negative log10 of concentration, concentration in mol/L.

Solved cases below.
compound="Cc1ccc(NC(=O)N[C@@H](Cc2cc(F)cc(F)c2)C(=O)N[C@@H]2C(=O)N3CCCC3C(=O)N(C)[C@@H](C)C(=O)N[C@@H](C)C(=O)N3CCCC3C(=O)O[C@H]2C)cc1 (stereo partly drawn) [Compound 25]" result_number=5.05
compound="C[C@@H]1C[C@H]2C(=O)OC[C@H](NC(=O)[C@H](Cc3ccccc3)NC(=O)Nc3cccc(Cl)c3)C(=O)N3CCC[C@H]3C(=O)N3CCCC[C@H]3C(=O)N[C@@H](C)C(=O)N2C1 [Compound 9]" result_number=4.60
compound="Cc1ccc(NC(=O)N[C@@H](Cc2cc(F)cc(F)c2)C(=O)N[C@@H]2C(=O)N3CCC[C@H]3C(=O)N3CCCC[C@H]3C(=O)N[C@@H](C)C(=O)N3CCC[C@H]3C(=O)O[C@H]2C)cc1 [Compound 15]" result_number=5.08
compound="CCc1ccc(NC(=O)N[C@@H](Cc2cc(F)cc(F)c2)C(=O)N[C@@H]2C(=O)N3CCC[C@H]3C(=O)N3CCCC[C@H]3C(=O)N[C@@H](C)C(=O)N3C[C@@H](C)C[C@H]3C(=O)O[C@H]2C)cc1 [Compound 21] ({NH(4-Et-phenyl)-CO}-[Phe(3,5-F2)][aThr]P[Pip]A[Pro(4S-Me)]; ester 2-C)" result_number=5.14

Please tell me the measured pIC50 for C[C@@H]1NC(=O)[C@H](C)N(C)C(=O)C2CCCN2C(=O)[C@@H](NC(=O)[C@H](Cc2cc(F)cc(F)c2)NC(=O)Nc2ccc(OC(F)(F)F)cc2)[C@H](C)OC(=O)C2CCCN2C1=O (stereo partly drawn) [Compound 27] ; system: Sa-ClpP (Staphylococcus aureus, UniProt Q2G036).
5.11

----------
test system: S. aureus USA 300; assay: Minimal inhibitory concentration, microbroth dilution; type: cell-based; conditions: Staphylococcus aureus, USA300; read-out: Minimal Inhibitory Concentration S. aureus USA 300
Measured MIC values are reported for all entries that follow.
A number alone suffices; assume µM.

Solved cases below.
molecule="CCc1ccc(NC(=O)N[C@@H](Cc2cc(F)cc(F)c2)C(=O)N[C@@H]2C(=O)N3CCCC3C(=O)N(C)[C@@H]([C@H](C)O)C(=O)N[C@@H](C)C(=O)N3C[C@H](C)CC3C(=O)O[C@H]2C)cc1 (stereo partly shown)" measurement_target="S. aureus USA 300" result_number=0.1
molecule="CCc1ccc(NC(=O)N[C@@H](Cc2cc(F)cc(F)c2)C(=O)N[C@@H]2C(=O)N3CCCC3C(=O)N(C)[C@@H]([C@H](C)O)C(=O)N[C@@H](C)C(=O)N3C[C@@H](C)CC3C(=O)O[C@H]2C)cc1 (stereo partly shown)" measurement_target="S. aureus USA 300" result_number=0.1
molecule="C[C@H]1CC2C(=O)O[C@@H](C)[C@H](NC(=O)[C@H](Cc3cc(F)cc(F)c3)NC(=O)Nc3ccc(OC(F)(F)F)cc3)C(=O)N3CCCC3C(=O)N(C)[C@@H]([C@H](C)O)C(=O)N[C@@H](C)C(=O)N2C1 (stereo partly shown)" measurement_target="S. aureus USA 300" result_number=0.1

Let's switch to this molecule now.
Tell me its MIC given C[C@@H]1CC2C(=O)O[C@@H](C)[C@H](NC(=O)[C@H](Cc3cc(F)cc(F)c3)NC(=O)Nc3ccc(OC(F)(F)F)cc3)C(=O)N3CCCC3C(=O)N(C)[C@@H]([C@H](C)O)C(=O)N[C@@H](C)C(=O)N2C1 (stereo partly shown) as the entry.
0.02

----------
experiment: Microsomal metabolic stability determination; settings: CD-1, mouse, microsomes, pH 7.4
*1 amine or outer side, *2 acyl side, *3 side chain or, on linkers, in order; H or OH if unused. Where a SMILES comes first, the peptide text is derived from it. Bridges are numbered along the chain shown (N, C = ends). [ ]: non-standard residue; d: D form. The star is where a group is joined. Phe(3,5-F2) = N[C@@H](Cc1cc(F)cc(F)c1)C(=O)O; NHPh(4-CF3) = FC(F)(F)c1ccc(N*)cc1; Heptenoyl(2E) = CCCC/C=C/C(=O)*; aThr = C[C@H](O)[C@H](N)C(=O)O; Pip = O=C(O)[C@@H]1CCCCN1; CO = O=C([*:1])[*:2]
Hi! Just check whether half-life is below 30 min. Below gives condition met, equal or above gives condition not met.

Consider the following illustrative entries.
compound=Cc1ccc(NC(=O)N[C@@H](Cc2cc(F)cc(F)c2)C(=O)N[C@@H]2C(=O)N3CCC[C@H]3C(=O)N3CCCC[C@H]3C(=O)N[C@@H](C)C(=O)N3CCC[C@H]3C(=O)O[C@H]2C)cc1 answer_label="condition met"
compound=C[C@@H]1NC(=O)[C@@H]2CCCCN2C(=O)[C@@H]2CCCN2C(=O)[C@@H](NC(=O)[C@H](Cc2cc(F)cc(F)c2)NC(=O)Nc2ccc3c(c2)OCO3)[C@H](C)OC(=O)[C@@H]2CCCN2C1=O answer_label="condition not met"
compound="CCCC/C=C/C(=O)N[C@@H](Cc1cc(F)cc(F)c1)C(=O)N[C@@H]1C(=O)N2CCC[C@H]2C(=O)N2CCCC[C@H]2C(=O)N[C@@H](C)C(=O)N2CCC[C@H]2C(=O)O[C@H]1C [ADEP 2719, reference compound] ({Heptenoyl(2E)}-[Phe(3,5-F2)][aThr]P[Pip]AP; ester 2-C)" answer_label="condition met"

Quick check: half-life of `Cc1ccc(NC(=O)N[C@@H](Cc2cc(F)cc(F)c2)C(=O)N[C@@H]2C(=O)N3CCC[C@H]3C(=O)N3CCCC[C@H]3C(=O)N[C@@H](C)C(=O)N3C[C@@H](C)C[C@H]3C(=O)O[C@H]2C)cc1` under 30 min?
condition not met

Quick check: half-life of `C[C@H]1C[C@H]2C(=O)O[C@@H](C)[C@H](NC(=O)[C@H](Cc3cc(F)cc(F)c3)NC(=O)Nc3ccc4c(c3)OCO4)C(=O)N3CCC[C@H]3C(=O)N3CCCC[C@H]3C(=O)N[C@@H](C)C(=O)N2C1` under 30 min?
condition not met

Quick check: half-life of `Cc1ccc(NC(=O)N[C@@H](Cc2ccccc2)C(=O)N[C@H]2COC(=O)[C@@H]3C[C@@H](C)CN3C(=O)[C@H](C)NC(=O)[C@@H]3CCCCN3C(=O)[C@@H]3CCCN3C2=O)cc1` under 30 min?
condition not met

Quick check: half-life of C[C@@H]1NC(=O)[C@@H]2CCCCN2C(=O)[C@@H]2CCCN2C(=O)[C@@H](NC(=O)[C@H](Cc2cc(F)cc(F)c2)NC(=O)Nc2ccc(C(F)(F)F)cc2)[C@H](C)OC(=O)[C@@H]2CCCN2C1=O [Compound 16] ({NHPh(4-CF3)-CO}-[Phe(3,5-F2)][aThr]P[Pip]AP; ester 2-C) under 30 min?
condition not met

----------
Measured IC50 at 72 h values are reported for all entries that follow.
assay: Cytotoxicity assay, CellTiter-Glo cell viability; assay type: cell-based; conditions: African green monkey; Vero cells, 72 hours; read-out: Cytotoxicity IC50
A number alone suffices; assume µM.

structure_smiles=C[C@@H]1C[C@H]2C(=O)OC[C@H](NC(=O)[C@H](Cc3ccccc3)NC(=O)Nc3cccc(Cl)c3)C(=O)N3CCC[C@H]3C(=O)N3CCCC[C@H]3C(=O)N[C@@H](C)C(=O)N2C1 endpoint_label="IC50 at 72 h" result_number=89

Let's switch to this molecule now.
Tell me its IC50 at 72 h given `C[C@@H]1C[C@H]2C(=O)OC[C@H](NC(=O)[C@H](Cc3ccccc3)NC(=O)Nc3ccc4c(c3)CCN4C)C(=O)N3CCC[C@H]3C(=O)N3CCCC[C@H]3C(=O)N[C@@H](C)C(=O)N2C1` as the entry.
76
